All values here come from patent US20050182242A1.

PI(3, 4)P2 reference
# Test system: PI(3,4)P2 liposomes
# experimental-protocol: Yeast proteome chip probed with PI(3,4)P2 liposomes
# measurement-conditions: liposome binding signal on yeast proteome chip, Cy3-streptavidin detection

{"molecule": "RPL9B: yeast GST-HisX6 fusion protein on proteome chip (protein, UniProt P51401 1-191, looked up, GST-HisX6 tag, yeast GST-HisX6 fusion protein on proteome chip) Large ribosomal subunit …: MKYIQTEQQIEIPEGVTVSIKSRIVKVVGPRGTLTKNLKHIDVTFTKVNNQLIKVAVHNGDRKHVAALRTVKSLVDNMITGVTKGYKYKMRYVYAHFPINVNIVEKDGAKFIEVRNFLGDKKIRNVPVRDGVTIEFSTNVKDEIVLSGNSVEDVSQNAADLQQICRVRNKDIRKFLDGIYVSHKGFIVEDM", "PI(3, 4)P2": 7.38}
{"molecule": "GPM3: yeast phosphoglycerate mutase, GST-HisX6 fusion (protein, UniProt Q12326 1-303, looked up, GST-His6 tag, yeast phosphoglycerate mutase, GST-HisX6 fusion) Phosphoglycerate mutase 3: MTVTDTFKLFILRHGQSELNSENIFCGWIDAQLTEKGKSQARHSAKLIKQFCDSNNISLPQIGYTSRLIRTQQTMDVILEELGLKHTNYVITTNTNIKEELQDTRFEGSMPVLQTWRLNERHYGAWQGQRKPDILKEYGKEKYMYIRRDYNGKPPKVNLNLEMVQEENDQGSSTGYDFKEPNRHLKYGPEEKANERLPESESLCEVVVRLKPFLNNVVLSTANKISQESCVIVGHGSSVRSLLKVLEGISDEDIKDVDIPNGIPLVIELDRDNYSFVRKFYLDPESAKVNAQMVRDEGFEKNP", "PI(3, 4)P2": 85.40}
{"molecule": "TFB3: yeast GST-HisX6 fusion protein on proteome chip (protein, UniProt Q03290 1-321, looked up, GST-His6 tag, yeast GST-HisX6 fusion protein on proteome chip) RNA polymerase II …: MLMDEYEENKDMCPICKTDRYLSPDVKFLVNPECYHRICESCVDRIFSLGPAQCPYKGCDKILRKNKFKTQIFDDVEVEKEVDIRKRVFNVFNKTIDDFNGDLVEYNKYLEEVEDIIYKLDHGIDVAKTEEKLRTYEELNKQLIMNNLERSRTEIESFEQRQKFEKEMKLKKRLLERQIEEEERMNKEWTKKEIVNRLSTTTQDINETIEGVKNTVKLKKSSARRKLEELNRVLKNNPYFNSNVNVQNSRLKDAVPFTPFNGDREAHPRFTLKGSVYNDPFIKDLEHRKEFIASGFNTNYAYERVLTEAFMGLGCVISEEL", "PI(3, 4)P2": 47.72}
{"molecule": "PEX4: yeast GST-HisX6 fusion protein on proteome chip (protein, UniProt P29340 1-183, looked up, GST-His6 tag, yeast GST-HisX6 fusion protein on proteome chip) Ubiquitin-conjugating enzyme …: MPNFWILENRRSYTSDTCMSRIVKEYKVILKTLASDDPIANPYRGIIESLNPIDETDLSKWEAIISGPSDTPYENHQFRILIEVPSSYPMNPPKISFMQNNILHCNVKSATGEICLNILKPEEWTPVWDLLHCVHAVWRLLREPVCDSPLDVDIGNIIRCGDMSAYQGIVKYFLAERERINNH", "PI(3, 4)P2": 8.63}
{"molecule": "MPD2: yeast GST-HisX6 fusion protein on proteome chip (protein, UniProt Q99316 23-277, looked up, GST-His6 tag, yeast GST-HisX6 fusion protein on proteome chip) Protein disulfide isomerase …: YSEAVTMVKSIEQYFDICNRNDSYTMIKYYTSWCQHCKTLAPVYEELGELYAKKANKDDTPINFLEVNCEFFGPTLCTDLPGFPIIELVKPRTKPLVLPKLDWSSMKFHERLWQRIKTWFNNPKYQLDTSRVVRFEGSRNLKSLSNFIDTVRSKDTEERFIEHIFDDSRNCNEELRSQQLLCKAGKEYYSDTLSKLYGDVNGLEKERRRLEALIKQNGDDLSKEVKEKLKIIRLQLSLLSHIEDQLEDTSSHDEL", "PI(3, 4)P2": 31.71}
{"molecule": "MET8: yeast GST-HisX6 fusion protein on proteome chip (protein, left off: a dimerising Fc or GST, yeast GST-HisX6 fusion protein on proteome chip) MVKSLQLAHQLKDKKILLIGGGEVGLTRLYKLIPTGCKLTLVSPDLHKSIIPKFGKFIQNEDQPDYREDAKRFINPNWDPTKNEIYEYIRSDFKDEYLDLEDENDAWYIIMTCIPDHPESARIYHLCKERFGKQQLVNVADKPDLCDFYFGANLEIGDRLQILISTNGLSPRFGALVRDEIRNLFTQMGDLALEDAVVKLGELRRGIRLLAPDDKDVKYRMDWARRCTDLFGIQHCHNIDVKRLLDLFKVMFQEQNCSLQFPPRERLLSEYCSS", "PI(3, 4)P2": 95.44}
{"molecule": "GFD1: yeast GST-HisX6 fusion protein on proteome chip (protein, UniProt Q04839 1-188, looked up, GST-His6 tag, yeast GST-HisX6 fusion protein on proteome chip) mRNA transport factor GFD1: MPLESIWADAPDEEPIKKQKPSHKRSNNNKKNNNSRWSNESSSNNKKKDSVNKVKNNKGNHESKTKNKIKETLPREKKPPHSQGKISPVSESLAINPFSQKATEISPPPVSPSKMKTTKTQSKQDTASKMKLLKKKIEEQREILQKTHHKNQQQQVLMDFLNDEGSSNWVDDDEEELILQRLKTSLKI", "PI(3, 4)P2": "−0.78"}
{"molecule": "YER046W: yeast GST-HisX6 fusion protein on proteome chip (protein, UniProt P40031 1-143, looked up, GST-His6 tag, yeast GST-HisX6 fusion protein on proteome chip) Sporulation-specific protein …: MGKNHFLKDFSALPEDVLIENERGITLLGYPLFSPKILLPHVDPPQFQRLNTENGSLIALSKNTISNFIELYPIDLSTERTAGSSSSQMTKWFVLMDYKEKYDIDDQGWCYSWNFNNSRWKSKNGLVRRRVWVRLPTTSHGLD", "PI(3, 4)P2": 11.62}
